Molecular target: UniProt Q8TDU6
Assay: Transactivation of human GPBAR1 receptor expressed in HEK293T cells assessed as maximum receptor activation at 10 uM after 18 hrs by cAMP response element driven renilla-luciferase dual reporter gene assay relative to TLCA
Format: functional, cell-based
Settings: HEK-293T
Quick rule: max activation of at least 80% means yes, below that means no.

{"columns": ["mol-smiles", "discrete-label"],
 "data": [
  ["C[C@H](CC#N)[C@H]1CC[C@H]2[C@@H]3C[C@](C)(O)[C@@H]4C[C@H](O)CC[C@]4(C)[C@H]3CC[C@]12C", "yes"],
  ["C[C@H](CC#N)[C@H]1CC[C@H]2[C@@H]3C[C@@](C)(O)[C@@H]4C[C@H](O)CC[C@]4(C)[C@H]3CC[C@]12C", "yes"],
  ["C=CCCC[C@]1(O)C[C@H]2[C@@H]3CC[C@H]([C@H](C)CC#N)[C@@]3(C)CC[C@@H]2[C@@]2(C)CC[C@@H](O)C[C@@H]12", "yes"],
  ["C[C@H](CC#N)[C@H]1CC[C@H]2[C@@H]3C[C@@](O)(c4ccccc4)[C@@H]4C[C@H](O)CC[C@]4(C)[C@H]3CC[C@]12C", "no"],
  ["C=CC[C@@]1(O)C[C@H]2[C@@H]3CC[C@H]([C@H](C)CC#N)[C@@]3(C)CC[C@@H]2[C@@]2(C)CC[C@@H](O)C[C@@H]12", "no"],
  ["CC[C@]1(O)C[C@H]2[C@@H]3CC[C@H]([C@H](C)CC#N)[C@@]3(C)CC[C@@H]2[C@@]2(C)CC[C@@H](O)C[C@@H]12", "yes"]
]}

====

Target: G-protein coupled bile acid receptor 1 (Homo sapiens, UniProt Q8TDU6)
Sequence (Q8TDU6 whole entry): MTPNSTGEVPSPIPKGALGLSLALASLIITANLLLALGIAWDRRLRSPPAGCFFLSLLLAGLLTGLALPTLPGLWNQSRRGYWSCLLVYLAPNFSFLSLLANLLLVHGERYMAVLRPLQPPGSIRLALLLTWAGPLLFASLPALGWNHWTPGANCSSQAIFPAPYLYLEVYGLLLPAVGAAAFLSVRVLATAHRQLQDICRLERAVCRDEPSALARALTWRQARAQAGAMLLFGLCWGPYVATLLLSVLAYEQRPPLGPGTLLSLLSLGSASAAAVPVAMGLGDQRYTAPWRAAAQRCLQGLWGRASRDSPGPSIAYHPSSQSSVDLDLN
Test: Agonist activity at human GPBAR1 receptor expressed in HEK293T cells after 18 hrs by cAMP response element driven renilla-luciferase dual reporter gene assay

{"columns": ["mol-smiles", "scale-unit", "EC50"],
 "data": [
  ["C[C@H](CC#N)[C@H]1CC[C@H]2[C@@H]3C[C@H](O)[C@@H]4C[C@H](O)CC[C@]4(C)[C@H]3CC[C@]12C", "nM", 2650],
  ["C=CC[C@@]1(O)C[C@H]2[C@@H]3CC[C@H]([C@H](C)CC#N)[C@@]3(C)CC[C@@H]2[C@@]2(C)CC[C@@H](O)C[C@@H]12", "nM", 100]
]}

====

Form field: max activation (one value per entry).
Target: Bile acid receptor (Homo sapiens)
Sequence (whole entry): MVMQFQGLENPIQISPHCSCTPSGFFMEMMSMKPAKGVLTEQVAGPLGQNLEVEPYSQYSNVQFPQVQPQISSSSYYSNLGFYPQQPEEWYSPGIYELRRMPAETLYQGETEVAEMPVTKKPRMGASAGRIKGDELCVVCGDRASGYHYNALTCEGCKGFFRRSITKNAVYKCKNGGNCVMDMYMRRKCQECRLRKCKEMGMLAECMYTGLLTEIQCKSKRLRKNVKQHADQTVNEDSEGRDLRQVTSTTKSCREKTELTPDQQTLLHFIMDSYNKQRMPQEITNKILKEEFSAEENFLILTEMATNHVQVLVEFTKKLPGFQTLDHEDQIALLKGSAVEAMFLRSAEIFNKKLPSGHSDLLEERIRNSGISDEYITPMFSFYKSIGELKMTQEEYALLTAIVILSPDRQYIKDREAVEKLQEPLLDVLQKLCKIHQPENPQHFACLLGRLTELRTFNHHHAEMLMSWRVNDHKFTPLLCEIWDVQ
Assay: Transactivation of FXR (unknown origin) expressed in HepG2 cells co-expressing pSG5RXR/pGL4.70 assessed as maximum receptor activation at 10 uM after 18 hrs by IR1 driven dual renilla-luciferase reporter gene assay relative to relative to CDCA
Assay type: cell-based

{"columns": ["mol-smiles", "max activation"],
 "data": [
  ["CC(C)[C@]1(O)C[C@@H]2[C@H](CC[C@]3(C)[C@@H]([C@H](C)CC#N)CC[C@@H]23)[C@@]2(C)CC[C@@H](O)C[C@H]21", "4.3%"],
  ["C=CC[C@@]1(O)C[C@H]2[C@@H]3CC[C@H]([C@H](C)CC#N)[C@@]3(C)CC[C@@H]2[C@@]2(C)CC[C@@H](O)C[C@@H]12", "4.1%"],
  ["CC[C@]1(O)C[C@H]2[C@@H]3CC[C@H]([C@H](C)CC#N)[C@@]3(C)CC[C@@H]2[C@@]2(C)CC[C@@H](O)C[C@@H]12", "12.3%"],
  ["C[C@H](CC#N)[C@H]1CC[C@H]2[C@@H]3C[C@H](O)[C@@H]4C[C@H](O)CC[C@]4(C)[C@H]3CC[C@]12C", "3.5%"],
  ["C[C@H](CC#N)[C@H]1CC[C@H]2[C@@H]3C[C@](C)(O)[C@@H]4C[C@H](O)CC[C@]4(C)[C@H]3CC[C@]12C", "6.4%"],
  ["C[C@H](CC#N)[C@H]1CC[C@H]2[C@@H]3C[C@@](C)(O)[C@@H]4C[C@H](O)CC[C@]4(C)[C@H]3CC[C@]12C", "5.5%"],
  ["C[C@H](CC#N)[C@H]1CC[C@H]2[C@@H]3C[C@](O)(Cc4ccccc4)[C@@H]4C[C@H](O)CC[C@]4(C)[C@H]3CC[C@]12C", "4.4%"],
  ["C[C@H](CC#N)[C@H]1CC[C@H]2[C@@H]3C[C@@](O)(c4ccccc4)[C@@H]4C[C@H](O)CC[C@]4(C)[C@H]3CC[C@]12C", "18.2%"],
  ["CC[C@@]1(O)C[C@H]2[C@@H]3CC[C@H]([C@H](C)CC#N)[C@@]3(C)CC[C@@H]2[C@@]2(C)CC[C@@H](O)C[C@@H]12", "6.6%"],
  ["C=CCCC[C@]1(O)C[C@H]2[C@@H]3CC[C@H]([C@H](C)CC#N)[C@@]3(C)CC[C@@H]2[C@@]2(C)CC[C@@H](O)C[C@@H]12", "1.6%"],
  ["C=C[C@]1(O)C[C@@H]2[C@H](CC[C@]3(C)[C@@H]([C@H](C)CC#N)CC[C@@H]23)[C@@]2(C)CC[C@@H](O)C[C@H]21", "2.2%"],
  ["CCC[C@]1(O)C[C@H]2[C@@H]3CC[C@H]([C@H](C)CC#N)[C@@]3(C)CC[C@@H]2[C@@]2(C)CC[C@@H](O)C[C@@H]12", "3.1%"]
]}
